All values here come from patent US20240166738A1.

target: GST-TMEM106B (truncated, comprising amino acids 122-210 of SEQ ID NO:1) (Homo sapiens, UniProt Q9NUM4); experiment: Pre-mix epitope binning of anti-TMEM106B antibodies (Carterra / Lake Pharma); assay type: binding; design: key: Bin 1: competes for binding to the same or overlapping TMEM106B region as the TM1, TM17, TM22, TM26, TM79, and/or TM82 antibodies; Bin 2: competes for binding to the same or overlapping TMEM106B region as the TM3, TM9, TM10, TM11, TM12, TM13, TM18, TM19, TM21, TM24, TM25, TM32, TM35, TM37, TM42, TM45, TM48, TM54, TM59, TM60, TM61, and/or TM76 antibodies; Bin 3: competes for binding to the same or overlapping TMEM106B region as the TM7, TM15, TM83, and/or TM84 antibodies; Bin 4: competes for binding to the same or overlapping TMEM106B region as the TMS, TM28, TM29, TM30, TM63, TM64, TM72, TM78, TM80, TM86, and/or TM88 antibodies; Bin 5: does not bind to a truncated TMEM106B comprising amino acids 122-210 of SEQ ID NO:1; conditions: competition for binding to truncated GST-TMEM106B (amino acids 122-210)
Sequence (Q9NUM4 122-210): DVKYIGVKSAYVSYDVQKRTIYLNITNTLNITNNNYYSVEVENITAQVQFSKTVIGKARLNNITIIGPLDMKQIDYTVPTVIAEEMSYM

- Molecule: "TM-5: anti-TMEM106B monoclonal antibody; CDR-H1-3 SEQ ID NO: 6, 39, 82; CDR-L1-3 SEQ ID NO: 124, 164, 188 (antibody, V domains shown) VH: QVQLQQSGTELARPGASVKVSCKASGYIFTTYGITWVKQRGGQGLEWIGEIYPRSDNTYYNEKFKDKATLTADKSSSTAYMELRSLTSEDSAVYFCARSKGSGTGDYWGQGTTVTVSS VL: DIQMTQSPASLSASVGETVTITCRASENIYIYLAWYQQKQGKTPQLLVYNGKMLAENVPSRFSGSGSGTQFSLKINSLQPEDFGSYYCQHHYGSPPAFGAGTKLELK"
  epitope bin: "Bin 4"
